Data provenance is patent US8227618B2.

assayTarget: NPY Y5 receptor (Mus musculus)
Construct: from tissue; host or cells: brain of living male C57BL/6J mice
Sequence (O70342 whole entry): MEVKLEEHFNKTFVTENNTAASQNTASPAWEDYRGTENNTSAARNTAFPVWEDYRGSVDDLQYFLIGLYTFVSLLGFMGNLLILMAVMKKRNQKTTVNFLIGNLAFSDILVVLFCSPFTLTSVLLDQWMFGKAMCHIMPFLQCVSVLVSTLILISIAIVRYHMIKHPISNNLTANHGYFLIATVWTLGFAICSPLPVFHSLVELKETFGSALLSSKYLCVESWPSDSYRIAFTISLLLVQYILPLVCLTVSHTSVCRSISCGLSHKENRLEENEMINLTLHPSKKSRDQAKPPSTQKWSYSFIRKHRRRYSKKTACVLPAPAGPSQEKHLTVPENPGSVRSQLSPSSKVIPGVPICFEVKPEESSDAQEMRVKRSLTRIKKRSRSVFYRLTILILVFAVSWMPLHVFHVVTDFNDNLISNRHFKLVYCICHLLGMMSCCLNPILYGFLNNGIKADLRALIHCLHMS
experimentSummary: Inhibition of Y5 agonist-induced food intake in mice
Type: in vivo, C57BL/6J mice
measurementContext: 4 hours after dosing; rows without asterisk (6 mg/kg per text)
Procedure: Under diethylether anesthesia the skull of male C57BL/6J mice (12-14 week old, 25-30 g) was exposed by making an incision about 1-cm long from external occipital crest to nasal dorsum, and then drilled in the 1-mm lateral position to the left following 1-mm posterior from bregma. […] Residual food was measured at 2 and 4 hours after the treatment. […]
metricName: Inhibition ratio of Y5 agonist-induced food intake (%)

CCS(=O)(=O)NC[C@H]1CC[C@H](Nc2ccc(-c3ccccc3)cn2)CC1    88.2

P = CC(C)(C)S(=O)(=O)NC[C@H]1CC[C@H](Nc2nc3ccc(F)cc3o2)CC1
Q = CCS(=O)(=O)NC[C@H]1CC[C@H](Nc2nc3ccccc3o2)CC1
Two entries are listed, P and Q . Which one carries the higher Inhibition ratio of Y5 agonist-induced food intake? Write down the label of the entry you select.
P
(P: 83.2%, Q: 25.3%)
